TARGET DESC: porcine leukocyte 12/15-lipoxygenase (Sus scrofa, UniProt P16469)
Sequence (P16469 whole entry): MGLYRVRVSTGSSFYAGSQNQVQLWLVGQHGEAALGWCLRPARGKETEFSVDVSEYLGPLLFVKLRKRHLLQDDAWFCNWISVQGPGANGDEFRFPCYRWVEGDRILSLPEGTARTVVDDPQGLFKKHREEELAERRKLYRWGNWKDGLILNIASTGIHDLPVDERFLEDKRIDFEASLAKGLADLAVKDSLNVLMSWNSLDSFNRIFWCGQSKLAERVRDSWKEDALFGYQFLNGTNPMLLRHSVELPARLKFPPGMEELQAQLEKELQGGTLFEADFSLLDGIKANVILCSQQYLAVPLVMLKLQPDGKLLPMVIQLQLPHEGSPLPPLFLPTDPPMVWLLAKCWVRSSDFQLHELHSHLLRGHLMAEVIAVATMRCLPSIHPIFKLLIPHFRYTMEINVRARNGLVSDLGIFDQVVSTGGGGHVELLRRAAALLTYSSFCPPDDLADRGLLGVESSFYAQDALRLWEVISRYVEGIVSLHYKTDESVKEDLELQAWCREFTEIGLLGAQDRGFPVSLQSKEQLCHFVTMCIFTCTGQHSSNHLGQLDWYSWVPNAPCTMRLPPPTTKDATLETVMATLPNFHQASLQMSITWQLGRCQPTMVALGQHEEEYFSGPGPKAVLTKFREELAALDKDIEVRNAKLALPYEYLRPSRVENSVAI
ASSAY OVERVIEW: 12/15-Lipoxygenase Enzyme Assay (colorimetric, ferric oxidation of xylenol orange)
MEASUREMENT CONTEXT: 70 μM arachidonic acid, 10 minute incubation at room temperature, 5 concentrations in triplicate starting at 10 μM; read-out: inhibition of 12/15-Lipoxygenase, IC50
RECORDED METRIC: IC50

The cases that follow already have their IC50 on record.
CON=C1CC(C)(C)Sc2c(C)c(C)c(O)c(C)c21 :: < 5 µM
CO/N=C1/Cc2c(C)c(O)c(C)c(C)c2OC1(C)C :: < 5 µM

// map CONC1CC(C)(C)Oc2c(C)c(C)c(O)c(C)c21 (centres unmarked) to recorded IC50 (system: porcine leukocyte 12/15-lipoxygenase (Sus scrofa, UniProt P16469))
< 5 µM

// map Cc1c(C)c2c(c(C)c1O)C(O)CC(C)(C)O2 (centres unmarked) [2,2,5,7,8-pentamethylchroman-4,6-diol] to recorded IC50 (system: porcine leukocyte 12/15-lipoxygenase (Sus scrofa, UniProt P16469))
< 5 µM

// map "CON=C1CC(C)(C)Oc2c(C)c(C)c(O)c(C)c21" to recorded IC50 (system: porcine leukocyte 12/15-lipoxygenase (Sus scrofa, UniProt P16469))
< 5 µM

Reference source for all entries: patent US20060193797A1
